Reference source: patent US10358435B2

# SYSTEM_TESTED: UniProt:B3VTJ2
# Sequence (B3VTJ2 1-941): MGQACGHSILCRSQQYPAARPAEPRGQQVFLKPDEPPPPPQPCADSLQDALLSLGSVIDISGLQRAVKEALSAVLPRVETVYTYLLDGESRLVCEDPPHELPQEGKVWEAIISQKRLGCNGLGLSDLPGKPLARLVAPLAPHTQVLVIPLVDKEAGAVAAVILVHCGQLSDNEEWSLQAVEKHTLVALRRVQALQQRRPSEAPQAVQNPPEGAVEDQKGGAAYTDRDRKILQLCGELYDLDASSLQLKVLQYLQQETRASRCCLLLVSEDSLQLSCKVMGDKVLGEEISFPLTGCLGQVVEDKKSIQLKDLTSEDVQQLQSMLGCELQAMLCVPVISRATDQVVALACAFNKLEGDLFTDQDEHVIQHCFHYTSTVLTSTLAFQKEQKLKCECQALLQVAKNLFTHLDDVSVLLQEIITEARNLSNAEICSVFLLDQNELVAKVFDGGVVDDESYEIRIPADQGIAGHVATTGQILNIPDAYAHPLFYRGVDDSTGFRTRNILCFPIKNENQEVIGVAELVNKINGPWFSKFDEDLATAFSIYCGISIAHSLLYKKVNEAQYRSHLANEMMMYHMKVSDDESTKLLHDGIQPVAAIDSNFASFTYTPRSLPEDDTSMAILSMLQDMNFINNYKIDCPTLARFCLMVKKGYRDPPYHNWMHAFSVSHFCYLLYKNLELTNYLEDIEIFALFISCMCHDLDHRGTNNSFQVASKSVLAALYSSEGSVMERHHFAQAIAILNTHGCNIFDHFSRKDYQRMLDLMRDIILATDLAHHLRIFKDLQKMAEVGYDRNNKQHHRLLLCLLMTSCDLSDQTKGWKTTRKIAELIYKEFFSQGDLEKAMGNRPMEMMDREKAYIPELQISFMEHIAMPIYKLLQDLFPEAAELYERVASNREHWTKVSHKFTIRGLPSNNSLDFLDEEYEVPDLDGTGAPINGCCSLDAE
# METHOD_SUMMARY: IMAP fluorescence polarization assay, rhesus PDE2A3 lysate from transfected AD293 cells
# TEST_PARAMETERS: FAM-labeled cAMP 50 nM, activator cGMP 1 uM; read-out: Rhesus PDE2 Ki
Assign pKi to each entry below.
Lab note — pKi values are minus log10 of concentrations in M.

Input line: Output measured pKi for this item: Cc1nc(-c2cn([C@H](C)c3ccc(C(F)(F)F)cc3C)nn2)cc(=O)[nH]1 (single isomer, unassigned) [Example 9]
Output line: 8.03

Input line: Output measured pKi for this item: CCc1ccc(C(C)(C)n2cc(-c3cc(=O)[nH]c(C)n3)nn2)c(Cl)c1 [Example 32]
Output line: 8.68

Input line: Output measured pKi for this item: Cc1nc(-c2cn(C(C)c3ccc(OC(F)(F)F)cc3F)nn2)cc(=O)[nH]1 (centres unmarked) [Example 13]
Output line: 7.00

Input line: Output measured pKi for this item: Cc1nc(-c2cn(C(C)c3ccc(C(F)(F)F)cc3)nn2)cc(=O)[nH]1 (single isomer, unassigned) [Example 18]
Output line: 7.26

Input line: Output measured pKi for this item: CC(c1ccc(C(F)(F)F)cc1F)n1cc(-c2cc(=O)[nH]c(Cc3ccccc3)n2)nn1 (centres unmarked) [Example 12]
Output line: 8.05
